The measurements presented in this section are drawn from ChEMBL document CHEMBL2040780.

Test system: Rattus norvegicus
Test: Cardiotoxicity in Wistar rat assessed as effect on P-Q interval at 10 mg/kg, iv after 5 mins
Type: toxicity, organism-based
Design: dose 10 mg/kg, route intravenous
Details: in vivo
Result type: Activity (ms)
Number in ms, nothing else.

Could you share which Activity value was measured for CN1C(=O)N(CC(O)CN2CCN(c3ccccc3Cl)CC2)C(c2ccccc2)(c2ccccc2)C1=O.Cl (racemic) ?
60

Could you share which Activity value was measured for CN1C(=O)N(CC(O)CN2CCN(c3ccccc3)CC2)C(c2ccccc2)(c2ccccc2)C1=O.Cl (racemic) ?
59

Could you share which Activity value was measured for COC(=O)C(C)N1C(=O)N(CC(O)CN2CCN(c3ccccc3OC)CC2)C(c2ccccc2)(c2ccccc2)C1=O.Cl (racemic) ?
55

Could you share which Activity value was measured for COC(=O)CN1C(=O)N(CC(O)CN2CCN(c3ccccc3OC)CC2)C(c2ccccc2)(c2ccccc2)C1=O.Cl (racemic) ?
63

Could you share which Activity value was measured for COC(=O)CN1C(=O)N(CC(O)CN2CCN(c3ccccc3F)CC2)C(c2ccccc2)(c2ccccc2)C1=O.Cl (racemic) ?
61

Could you share which Activity value was measured for COC(=O)CN1C(=O)N(CCCCN2CCN(c3ccccc3OC)CC2)C(c2ccccc2)(c2ccccc2)C1=O.Cl ?
63.3

Could you share which Activity value was measured for C=CC(C(=O)OC)N1C(=O)N(CC(O)CN2CCN(c3ccccc3OC)CC2)C(c2ccccc2)(c2ccccc2)C1=O.Cl (racemic) ?
57

Could you share which Activity value was measured for CCOc1ccccc1N1CCN(CC(O)CN2C(=O)N(C)C(=O)C2(c2ccccc2)c2ccccc2)CC1.Cl (racemic) ?
79

* * *

What Activity was measured for each of the following?
Test system: Rattus norvegicus
Assay: Cardiotoxicity in Wistar rat assessed as effect on Q-T interval at 10 mg/kg, iv after 5 mins
Format: toxicity, organism-based
Design: dose 10 mg/kg, route intravenous
Settings: in vivo
Number in ms, nothing else.

Could you share which Activity value was measured for CN1C(=O)N(CC(O)CN2CCN(c3ccccc3)CC2)C(c2ccccc2)(c2ccccc2)C1=O.Cl (racemic) ?
79

Could you share which Activity value was measured for COC(=O)CN1C(=O)N(CC(O)CN2CCN(c3ccccc3F)CC2)C(c2ccccc2)(c2ccccc2)C1=O.Cl (racemic) ?
82

Could you share which Activity value was measured for COC(=O)CN1C(=O)N(CCCCN2CCN(c3ccccc3OC)CC2)C(c2ccccc2)(c2ccccc2)C1=O.Cl ?
73.3

Could you share which Activity value was measured for COC(=O)C(C)N1C(=O)N(CC(O)CN2CCN(c3ccccc3OC)CC2)C(c2ccccc2)(c2ccccc2)C1=O.Cl (racemic) ?
81

* * *

System: Rattus norvegicus
Test: Cardiotoxicity in Wistar rat assessed as effect on P-Q interval at 10 mg/kg, iv after 1 min
Format: toxicity, organism-based
Design: dose 10 mg/kg, route intravenous
Settings: in vivo
Result type: Activity (ms)
Number in ms, nothing else.

Could you share which Activity value was measured for COC(=O)C(C)N1C(=O)N(CC(O)CN2CCN(c3ccccc3OC)CC2)C(c2ccccc2)(c2ccccc2)C1=O.Cl (racemic) ?
57

Could you share which Activity value was measured for COC(=O)CN1C(=O)N(CCCCN2CCN(c3ccccc3OC)CC2)C(c2ccccc2)(c2ccccc2)C1=O.Cl ?
62.6

Could you share which Activity value was measured for COC(=O)CN1C(=O)N(CC(O)CN2CCN(c3ccccc3F)CC2)C(c2ccccc2)(c2ccccc2)C1=O.Cl (racemic) ?
66

Could you share which Activity value was measured for C=CC(C(=O)OC)N1C(=O)N(CC(O)CN2CCN(c3ccccc3OC)CC2)C(c2ccccc2)(c2ccccc2)C1=O.Cl (racemic) ?
56
